Some binders, each annotated with its measured MFI.
biological target: T1, human TMEM106B (human, UniProt Q9NUM4 2-274); experiment: FACS A549 10 ug/ml
T1 construct: full-length, transiently expressed on HEK293 cells, or natively expressed on HeLa, U251 and A549 cells (the cell is named under assay); also the source of the Pepscan peptides; also called huTMEM106B; huTMEM

{"binder": "TM-14 (antibody, V domains shown, mouse IgG (hybridoma)) VH: QVQLQQSGPELVRPGTSVKVSCKASGYAFTNYLIEWVKQRPGQGLEWIGVINPGGGNTDYSEKFKDKATLTADKSSNTAYIQLSSLTSEDSAVYFCARSPYSSYVGYAVDYWGQGTSVTVSS VL: DIQMTQSPSSLSASLGERVSLTCRASQDIGSNLNWLQQEPDGTIKRLIYATSSLDSGVPKRFSGSRSGSDYSLTISSLESEDFVVYYCLQYASSPRTFGGGTRLEIK", "MFI": "438 MFI"}
{"binder": "TM-6 (antibody, V domains shown, mouse IgG (hybridoma)) VH: QVQLQQSGAELVKPGASVKLSCKASGYTFTEYTIHWVKQRSGQGLEWIGWFYPGSTYIDYNEKFKDKATLTADKSSSTVYLELSRLTSEDSAVYFCARHEEDYSNWFPFWGQGTLVTVSA VL: DIQMSQSSSYLSVSLGGRVTITCKASDHINNWLAWYQQKPGNAPRLLISGATSLETGVPSRFSGSGSGKDYTLSITSLQTEDVATYYCQQYWSSPYTFGGGTKLEIK", "MFI": "544 MFI"}
{"binder": "TM-25 (antibody, V domains shown) VH: EVQLVESGGDLVKPGGSLRLSCAASGFTFSGYGMSWIRQTPDKRLEWVATISSGGRYTVYPDSVKGRFTMSRDNVKNTLYLQMSSLKSEDTALYYCARDNFYSYAMDYWGLGTSVTVSA VL: DIVMTQAAFSNPVTLGTSASISCRSSKSLLHSNGITYLFWYLQKPGQSPQLLIYQMSNLASGVPDRFSSSGSGTDFTLRISRVEAEDVGVYYCAQNLELWTFGGGTKLEIK", "MFI": "7000 MFI"}

Provenance of the data: patent US20200339680A1
